Parameter Relative substrate response towards transesterification, Ag85C: see the listing below.
target: Ag85C (Mycobacterium tuberculosis, UniProt P9WQN9); type: biochemical; details: ratio of peak height of mono-hexanoyl ester of labelled/derivatised Tre to peak height of labelled/derivatised Tre; 500 μM di-hexanoyl ester, 500 μM substrate, 100 nM enzyme, 1 mM TEA pH 7.2, 37° C; compound 1 (Tre) = 100
Sequence (P9WQN9 46-340): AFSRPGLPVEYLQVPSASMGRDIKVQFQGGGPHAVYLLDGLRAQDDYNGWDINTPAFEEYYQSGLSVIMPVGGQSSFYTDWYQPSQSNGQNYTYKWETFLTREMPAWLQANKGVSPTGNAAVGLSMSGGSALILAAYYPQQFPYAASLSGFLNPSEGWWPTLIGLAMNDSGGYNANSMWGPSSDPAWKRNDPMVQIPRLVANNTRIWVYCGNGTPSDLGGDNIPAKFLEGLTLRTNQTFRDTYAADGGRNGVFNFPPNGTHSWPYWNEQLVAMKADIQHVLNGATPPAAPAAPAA
Reply briefly: the number, and no unit.

As a guide, the following entries are already answered.
compound: C[C@]1(O[C@H]2OC(CO)[C@@H](O)C(F)C2O)OC(CO)[C@@H](O)C(O)C1O (stereo partly shown) [Compound 6]
endpoint_result: 76
--
compound: OCC1O[C@H](O[C@H]2OC(CO)[C@@H](O)C(O)C2I)C(I)C(O)[C@@H]1O (stereo partly shown) [Compound 12]
endpoint_result: 166
--
compound: OCC1O[C@H](O[C@H]2OC(CBr)[C@@H](O)C(O)C2O)C(O)C(O)[C@@H]1O (stereo partly shown) [Compound 19]
endpoint_result: 99
--
compound: O=P(O)(O)OCC1O[C@H](O[C@H]2OC(CO)[C@@H](O)C(O)C2O)C(O)C(O)[C@@H]1O (stereo partly shown) [Compound 15, Trehalose-6-phosphate]
endpoint_result: 28
--
compound: C[C@]1(O[C@H]2OC(CO)[C@@H](O)C(O)C2O)OC(CO)[C@H](O)C(O)C1O (stereo partly shown) [Compound 4]
endpoint_result: 57
--
compound: C[C@]1(O[C@H]2OC(CO)[C@@H](O)C(O)C2N)OC(CO)[C@@H](O)C(O)C1O (stereo partly shown) [Compound 7]
endpoint_result: 91

IN: I am curious: what Relative substrate response towards transesterification, Ag85C value has been reported for OCC1O[C@H](O[C@@H]2CC(O)[C@@H](O)C(CO)O2)CC(O)[C@H]1O (stereo partly shown) [Compound 11] ?
OUT: 1
